# TGI per entry
System: HCT-116 colon
Experiment: NCI tumour cell line growth inhibition, 48 h

# compound, unit-descriptor, value-comparator, TGI
rows = [
    ("[O-][N+](=Nc1ccccc1CO)c1ccccc1CO", "µM", ">", 100),
    ("CC1(C)OC2[C@@H](CO[C@@]3([C@@H](O)CCO)OC(C)(C)O[C@@H]23)O1 (stereo partly specified)", "µM", ">", 100),
    ("CC(=O)N/N=C1\\CC(C)(C)C2CCC1C2 (stereo unspecified)", "µM", ">", 100),
    ("Clc1ccc(C(c2ccccc2Cl)C(Cl)Cl)cc1 (stereo unspecified)", "µM", "=", 31.4),
    ("CO/N=C(/C)c1cccc(Nc2nc3ccccc3c3[nH]c4ccccc4c23)c1", "µM", "=", 14),
    ("Nc1ccccc1C#C/C=C\\C#Cc1ccc(OCCCNC(=O)c2cc3ccccc3[nH]2)cc1", "µM", "=", 40.6),
]
